Hey, just so you know, these numbers are from paper PMC4055595.

# assay-comment: Rat plasma pharmacokinetics after single-dose vehicle/SLE and digoxin or GE
# Format: in vivo, Sprague-Dawley rats
# particulars: female, Sprague-Dawley, rat, plasma, po, rats, control: single vehicle, 2 h later digoxin 0.5 mg/kg or GE 120 mg/kg ig; read-out: MRTINF_obs
Exercise: state measured MRT inf for each of the compounds provided.
Numbers only, in h.

Reference set, count: 2
INSERT INTO assay_data (compound, quantitative_result) VALUES
  ('CC(C)=CCC[C@](C)(O[C@@H]1O[C@H](CO[C@@H]2OC[C@H](O)[C@H](O)[C@H]2O)[C@@H](O)[C@H](O)[C@H]1O)[C@H]1CC[C@]2(C)[C@@H]1[C@H](O)C[C@@H]1[C@@]3(C)CC[C@H](O[C@@H]4O[C@H](CO)[C@@H](O)[C@H](O)[C@H]4O[C@@H]4O[C@H](CO)[C@@H](O)[C@H](O)[C@H]4O)C(C)(C)[C@@H]3CC[C@]12C [Rb2, ginsenoside Rb2]', 27.9),
  ('CC(C)=CCC[C@](C)(O[C@@H]1O[C@H](CO)[C@@H](O)[C@H](O)[C@H]1O)[C@H]1CC[C@]2(C)[C@@H]1[C@H](O)C[C@@H]1[C@@]3(C)CC[C@H](O[C@@H]4O[C@H](CO)[C@@H](O)[C@H](O)[C@H]4O[C@@H]4O[C@H](CO)[C@@H](O)[C@H](O)[C@H]4O)C(C)(C)[C@@H]3CC[C@]12C [Rd, ginsenoside Rd]', 21.6);

In: Name the recorded MRT inf of the compound listed here: CC(C)=CCC[C@](C)(O[C@@H]1O[C@H](CO[C@@H]2O[C@H](CO)[C@@H](O)[C@H](O)[C@H]2O)[C@@H](O)[C@H](O)[C@H]1O)[C@H]1CC[C@]2(C)[C@@H]1[C@H](O)C[C@@H]1[C@@]3(C)CC[C@H](O[C@@H]4O[C@H](CO)[C@@H](O)[C@H](O)[C@H]4O[C@@H]4O[C@H](CO)[C@@H](O)[C@H](O)[C@H]4O)C(C)(C)[C@@H]3CC[C@]12C [Rb1, ginsenoside Rb1]
Out: 23.1
